Hello, the source for this data is the supplement of paper PMC9112550, in case you need it.

tested on: Escherichia coli TOP10; test: shrunken log2 fold change of peptide-encoding DNA abundance (4.5 h post-induction vs induction); higher = less antimicrobial activity (less host growth inhibition); settings: time post-induction: 4.5 h; library: site-saturation at positions 5, 18, 19, 20;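 further: peptides expressed intracellularly from a pBAD plasmid library in pooled LB shake-flask culture, induced with 0.3% L-arabinose, DNA abundance read by NGS, three biological replicates, DESeq2 with apeglm shrinkage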
Label scheme for shrunken log2 fold change: low-valued: < -0.05; mid-valued: ≥ -0.05 and < 0.08; high-valued: ≥ 0.08

Task: Band assignment needed for RRIRYRPPRLPRPRPRPIVRPRP please.
Output: mid-valued

Task: Band assignment needed for RRIRTRPPRLPRPRPRPFGHPRP please.
Output: low-valued

Task: Band assignment needed for RRIRYRPPRLPRPRPRPENHPRP please.
Output: low-valued

Task: Band assignment needed for RRIRQRPPRLPRPRPRPGWNPRP please.
Output: low-valued

Task: Band assignment needed for RRIRVRPPRLPRPRPRPNRVPRP please.
Output: mid-valued

Task: Band assignment needed for RRIRFRPPRLPRPRPRPSPPPRP please.
Output: high-valued

Task: Band assignment needed for RRIRDRPPRLPRPRPRPDAYPRP please.
Output: mid-valued

Task: Band assignment needed for RRIRWRPPRLPRPRPRPGESPRP please.
Output: high-valued

Task: Band assignment needed for RRIRSRPPRLPRPRPRPLCCPRP please.
Output: high-valued

Task: Band assignment needed for RRIRIRPPRLPRPRPRPWCFPRP please.
Output: low-valued

Task: Band assignment needed for RRIRLRPPRLPRPRPRPRFMPRP please.
Output: low-valued

Task: Band assignment needed for RRIRDRPPRLPRPRPRPAFQPRP please.
Output: high-valued

Task: Band assignment needed for RRIRPRPPRLPRPRPRPHDHPRP please.
Output: mid-valued

Task: Band assignment needed for RRIRMRPPRLPRPRPRPFTLPRP please.
Output: mid-valued
